Quick reference: Avg % Deletion of the listed items.
System: TTR
Protocol Text: TTR editing in HepG2 cells transfected with Spy Cas9 mRNA and dgRNAs (Table 6)
Assay type: cell-based, human
Condition Parameters: HepG2 cells co-transfected with Spy Cas9 mRNA (SEQ ID NO:2) and dgRNAs
Give the value; after it, write the unit.

{"Residue String": "GCGGCAAUGGUGUAGCGGCG (tested as dual guide RNA, chemistry not given here) [CR003377]", "Avg % Deletion": "1.02%"}
{"Residue String": "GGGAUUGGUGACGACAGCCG (tested as dual guide RNA, chemistry not given here) [CR003390]", "Avg % Deletion": "2.44%"}
{"Residue String": "CGGCAAUGGUGUAGCGGCGG (tested as dual guide RNA, chemistry not given here) [CR003376]", "Avg % Deletion": "0.24%"}
{"Residue String": "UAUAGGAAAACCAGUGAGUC (tested as dual guide RNA, chemistry not given here) [CR005305]", "Avg % Deletion": "1.21%"}
{"Residue String": "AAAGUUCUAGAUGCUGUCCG (tested as dual guide RNA, chemistry not given here) [CR003346]", "Avg % Deletion": "0.05%"}

Would you mind telling me what Avg % Deletion value was observed for AAAGGCUGCUGAUGACACCU (tested as dual guide RNA, chemistry not given here) [CR003353] ?
3.68%

Same question, AGUCCCUCAUUCCUUGGGAU (tested as dual guide RNA, chemistry not given here) [CR003392] this time
0.33%
